organism: Homo sapiens; test: Hepatic clearance in human; details: in vivo
measureName: log10(CL) (log10 of the value in mL/min/kg)
The figures below represent log10 of CL, where CL is stated in mL/min/kg.

Here's what some known entries look like.
{"columns": ["molecule", "log10(CL)"],
 "data": [
  ["Nc1nc(=O)[nH]cc1F", -1.70],
  ["CC(C)[C@H]1CC[C@H](C(=O)N[C@H](Cc2ccccc2)C(=O)O)CC1 [NATEGLINIDE]", 0.23],
  ["Cn1c(=O)c2c(ncn2CC(O)CO)n(C)c1=O (stereo not given)", -0.10],
  ["CNCCC=C1c2ccccc2CCc2ccccc21", 0.99],
  ["CNC(=C[N+](=O)[O-])NCCSCc1csc(CN(C)C)n1", 0.40],
  ["O=C1CN=C(c2ccccc2Cl)c2cc([N+](=O)[O-])ccc2N1", -0.05]
]}

Recorded log10(CL) of `CC(=O)NC[C@H]1CN(c2ccc(N3CCOCC3)c(F)c2)C(=O)O1` , please.
0.08

Returns the measured log10(CL) for the input molecule. Input: `CN[C@H](CC(C)C)C(=O)N[C@H]1C(=O)N[C@@H](CC(N)=O)C(=O)N[C@H]2C(=O)N[C@H]3C(=O)N[C@H](C(=O)N[C@H](C(=O)O)c4cc(O)cc(O)c4-c4cc3ccc4O)[C@H](O)c3ccc(c(Cl)c3)Oc3cc2cc(c3O[C@@H]2O[C@H](CO)[C@@H](O)[C@H](O)[C@H]2O[C@H]2C[C@](C)(N)[C@H](O)[C@H](C)O2)Oc2ccc(cc2Cl)[C@H]1O`
-0.52

Consider the molecule shown here: C[C@]12CC[C@@H]3c4ccc(OC(=O)N(CCCl)CCCl)cc4CC[C@H]3[C@@H]1CC[C@@H]2OP(=O)(O)O [ESTRAMUSTINE PHOSPHATE] What is its recorded log10(CL)?
-0.05

For the molecule `O=C(c1ccc(F)cc1)C1CCN(CCn2c(=O)[nH]c3ccccc3c2=O)CC1` , what log10(CL) is on record?
0.82

Looking for the measured log10(CL) of `Cc1nnc(SCC2=C(C(=O)O)N3C(=O)[C@@H](NC(=O)[C@H](O)c4ccccc4)[C@H]3SC2)s1` , can you help?
-0.70

Returns the measured log10(CL) for the input molecule. Input: `CN(C)CCc1c[nH]c2ccc(C[C@H]3COC(=O)N3)cc12`
0.65

Item under review: O=C1Nc2ccc(Cl)cc2C(c2ccccc2Cl)=NC1O (stereo not given) . Reported log10(CL)?
0.00

Returns the measured log10(CL) for the input molecule. Input: `CCC1(c2ccccc2)C(=O)NC(=O)NC1=O`
-1.32

Data origin: ChEMBL document CHEMBL1156824
